target: RPS6KA6 KD1 (human) (UniProt Q9UK32); assay: split-luciferase competition binding; details: compound 10.0 µM
Sequence (Q9UK32 whole entry, looked up): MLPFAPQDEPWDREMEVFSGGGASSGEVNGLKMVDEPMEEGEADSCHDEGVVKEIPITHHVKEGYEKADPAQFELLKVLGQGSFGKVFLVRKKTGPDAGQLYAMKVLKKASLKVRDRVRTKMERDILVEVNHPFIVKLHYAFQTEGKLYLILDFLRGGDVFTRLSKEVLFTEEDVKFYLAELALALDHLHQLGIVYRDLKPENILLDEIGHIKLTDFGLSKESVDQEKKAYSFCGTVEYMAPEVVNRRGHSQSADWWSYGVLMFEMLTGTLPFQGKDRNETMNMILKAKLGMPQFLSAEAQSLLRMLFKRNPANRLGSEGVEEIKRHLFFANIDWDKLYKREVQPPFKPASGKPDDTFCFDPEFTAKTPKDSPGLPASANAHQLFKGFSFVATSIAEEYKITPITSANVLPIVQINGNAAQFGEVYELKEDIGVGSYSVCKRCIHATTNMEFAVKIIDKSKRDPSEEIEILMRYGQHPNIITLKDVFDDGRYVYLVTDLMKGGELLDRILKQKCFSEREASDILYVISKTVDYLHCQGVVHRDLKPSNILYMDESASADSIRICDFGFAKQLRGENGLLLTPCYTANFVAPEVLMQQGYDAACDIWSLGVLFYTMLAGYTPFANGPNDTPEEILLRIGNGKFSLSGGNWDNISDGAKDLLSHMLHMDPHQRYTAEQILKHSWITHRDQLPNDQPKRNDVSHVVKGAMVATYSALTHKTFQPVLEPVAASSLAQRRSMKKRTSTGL
MEASURED_ENDPOINT: inhibition (%)
Write down the numeric answer in % and omit the unit.

Query `Cn1cnc2c(NCc3ccccc3)nc(NCCO)nc21` yields inhibition of 0

Query `CC(=O)c1c(O)c(C)c(O)c(Cc2c(O)c3c(c(C(=O)/C=C/c4ccccc4)c2O)OC(C)(C)C=C3)c1O` yields inhibition of 13

Query CC1=C(O)C(=O)[C@@H]2OC2C1=O (some centres not stated) yields inhibition of 5

Query `CCN(CC)CCNC(=O)c1c(C)[nH]c(/C=C2\C(=O)Nc3ccc(F)cc32)c1C` yields inhibition of 69

Query `COc1cc2nccc(Oc3ccc(NC(=O)Nc4ccc(F)cc4F)c(F)c3)c2cc1OC` yields inhibition of 21

Query `CC(C)[C@H](CO)Nc1nc(Nc2cccc(Cl)c2)c2ncn(C(C)C)c2n1` yields inhibition of 19

Query `O=C1c2ccccc2-c2n[nH]c3cccc1c23` yields inhibition of 0

----------
biological target: AKT2 (human); experiment: split-luciferase competition binding; settings: compound 10.0 µM
Consider the following molecules; for each one, report its inhibition.
Write down the numeric answer in % and omit the unit.

Query `Cc1cc(I)ccc1Nc1c(C(=O)NOCC2CC2)cc(F)c(F)c1F` yields inhibition of 0

Query `O=C(Nc1cc(C(F)(F)F)cc(C(F)(F)F)c1)c1cc(Cl)ccc1O` yields inhibition of 0

Query `CC(C)[C@H](CO)Nc1nc(Nc2ccc(C(=O)O)c(Cl)c2)c2ncn(C(C)C)c2n1` yields inhibition of 0

Query O=C(NC(NC(=S)Nc1ccc(F)c([N+](=O)[O-])c1)C(Cl)(Cl)Cl)C(c1ccccc1)c1ccccc1 (stereo unspecified) yields inhibition of 0

Query `O=c1cc(N2CCOCC2)nc2c3ccccc3ccn12` yields inhibition of 0

Query `Cc1ccc(-c2nn(C(C)(C)C)c3ncnc(N)c23)cc1` yields inhibition of 0

Query `CN1CC[C@H](c2c(O)cc(O)c3c(=O)cc(-c4ccccc4Cl)oc23)[C@H](O)C1` yields inhibition of 0

Query `NC(=O)c1sc(-c2ccsc2)cc1N` yields inhibition of 0

Query `Fc1ccc(Cl)cc1-c1nc(Nc2ccncc2)c2nccnc2n1` yields inhibition of 26

Query `O=c1cc(N2CCOCC2)oc2c(-c3ccccc3)cccc12` yields inhibition of 0

Query `N#CC(=C(\N)Sc1ccccc1N)/C(C#N)=C(/N)Sc1ccccc1N` yields inhibition of 0

----------
Consider the following compounds; for each one, report its inhibition.
target: AURKA (human); assay: split-luciferase competition binding; conditions: compound 10.0 µM
Write down the numeric answer in % and omit the unit.

Query `Oc1ccc(-c2nc(-c3ccc(F)cc3)c(-c3ccncc3)[nH]2)cc1` yields inhibition of 0

Query `Cc1cc(F)c(Nc2ncnc3cc(OCc4ccccc4)ccc23)cc1O` yields inhibition of 0

Query `Cc1ccc(-c2nn(C(C)(C)C)c3ncnc(N)c23)cc1` yields inhibition of 0

Query `CS(=O)(=O)CCNCc1nc(-c2ccc3ncnc(Nc4ccc(OCc5cccc(F)c5)c(Cl)c4)c3c2)cs1` yields inhibition of 13

Query `NC(=O)c1sc(-c2ccsc2)cc1N` yields inhibition of 0

Query `O=c1cc(N2CCOCC2)oc2c(-c3ccccc3)cccc12` yields inhibition of 0

----------
target: PRKCE (human) (UniProt Q02156); experiment: split-luciferase competition binding; settings: compound 10.0 µM
Sequence (Q02156 whole entry, looked up): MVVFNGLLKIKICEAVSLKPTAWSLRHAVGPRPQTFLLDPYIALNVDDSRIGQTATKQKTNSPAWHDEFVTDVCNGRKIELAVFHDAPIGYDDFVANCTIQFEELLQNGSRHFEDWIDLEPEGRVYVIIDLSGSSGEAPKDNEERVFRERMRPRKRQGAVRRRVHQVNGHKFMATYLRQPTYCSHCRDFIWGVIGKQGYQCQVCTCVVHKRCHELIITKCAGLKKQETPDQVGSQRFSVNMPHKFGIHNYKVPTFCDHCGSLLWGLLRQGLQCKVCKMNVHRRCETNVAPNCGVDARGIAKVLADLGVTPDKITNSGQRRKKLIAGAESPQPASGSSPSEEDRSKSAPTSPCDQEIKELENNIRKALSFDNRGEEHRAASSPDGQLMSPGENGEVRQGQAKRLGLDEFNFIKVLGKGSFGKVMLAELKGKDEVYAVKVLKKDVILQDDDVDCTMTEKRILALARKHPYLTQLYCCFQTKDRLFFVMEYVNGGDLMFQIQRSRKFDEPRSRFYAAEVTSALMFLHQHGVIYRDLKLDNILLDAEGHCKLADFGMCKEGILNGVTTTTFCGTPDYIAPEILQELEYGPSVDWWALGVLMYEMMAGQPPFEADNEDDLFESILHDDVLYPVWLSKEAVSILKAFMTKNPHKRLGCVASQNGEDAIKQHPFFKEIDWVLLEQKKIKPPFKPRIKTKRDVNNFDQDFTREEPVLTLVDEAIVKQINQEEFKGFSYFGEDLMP
Consider the following compounds; for each one, report its inhibition.
Write down the numeric answer in % and omit the unit.

Query `Fc1ccc(Cl)cc1-c1nc(Nc2ccncc2)c2nccnc2n1` yields inhibition of 27

Query `O=C1Nc2ccc(I)cc2/C1=C/c1cc(Br)c(O)c(Br)c1` yields inhibition of 10

Query `N#C/C(=C(/N)Sc1ccc(N)cc1)c1ccccc1C(F)(F)F` yields inhibition of 0

Query `COc1cc2ncnc(Nc3ccc(F)c(Cl)c3)c2cc1OCCCN1CCOCC1` yields inhibition of 7

Query `Brc1c(Br)c(Br)c2[nH]nnc2c1Br` yields inhibition of 0

Query `O=c1cc(N2CCOCC2)nc2c3ccccc3ccn12` yields inhibition of 6

----------
biological target: SGK2 (human) (UniProt Q9HBY8); experiment: split-luciferase competition binding; settings: compound 10.0 µM
Sequence (Q9HBY8 whole entry, looked up): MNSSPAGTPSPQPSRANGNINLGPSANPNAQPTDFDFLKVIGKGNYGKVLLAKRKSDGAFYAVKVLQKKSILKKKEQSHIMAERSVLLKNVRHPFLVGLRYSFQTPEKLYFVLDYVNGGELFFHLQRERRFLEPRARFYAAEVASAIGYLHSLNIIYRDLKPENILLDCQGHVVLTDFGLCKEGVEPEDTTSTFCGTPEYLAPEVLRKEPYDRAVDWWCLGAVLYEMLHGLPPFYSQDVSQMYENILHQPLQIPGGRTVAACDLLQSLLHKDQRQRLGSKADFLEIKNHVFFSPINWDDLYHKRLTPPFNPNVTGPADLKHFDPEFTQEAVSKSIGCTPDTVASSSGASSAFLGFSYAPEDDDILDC
Consider the following compounds; for each one, report its inhibition.
Write down the numeric answer in % and omit the unit.

Query `Oc1ccc(-c2nc(-c3ccc(F)cc3)c(-c3ccncc3)[nH]2)cc1` yields inhibition of 0

Query `Cn1cc(C2=C(c3cn(CCCSC(=N)N)c4ccccc34)C(=O)NC2=O)c2ccccc21` yields inhibition of 34

Query `CC(=O)c1c(O)c(C)c(O)c(Cc2c(O)c3c(c(C(=O)/C=C/c4ccccc4)c2O)OC(C)(C)C=C3)c1O` yields inhibition of 20

Query `O=C1NC(=O)C(c2ccccc2[N+](=O)[O-])=C1Nc1ccc(O)c(Cl)c1` yields inhibition of 0

Query `CS(=O)(=O)CCNCc1nc(-c2ccc3ncnc(Nc4ccc(OCc5cccc(F)c5)c(Cl)c4)c3c2)cs1` yields inhibition of 11

----------
molecular target: SGK2 (human) (UniProt Q9HBY8); test: split-luciferase competition binding; conditions: compound 10.0 µM
MEASURED_ENDPOINT: inhibition (%)
Write down the numeric answer in % and omit the unit.

Query `Nc1ccc(-c2cccc3c(=O)cc(N4CCOCC4)oc23)cc1` yields inhibition of 0

Query `O=C1Nc2ccc(I)cc2/C1=C/c1cc(Br)c(O)c(Br)c1` yields inhibition of 10

Query `CC[C@@H](CO)Nc1nc(NCc2ccccc2)c2ncn(C(C)C)c2n1` yields inhibition of 0

Query `COc1cc2ncnc(Nc3ccc(Cl)cc3F)c2cc1OC` yields inhibition of 7

Query `NC(=O)Nc1sc(-c2ccc(F)cc2)cc1C(N)=O` yields inhibition of 0

Query `O=C1NC(=O)c2c1c1c3ccccc3[nH]c1c1[nH]c3ccccc3c21` yields inhibition of 70

Query `O=S(=O)(c1cccc2c(Cl)cccc12)N1CCCNCC1` yields inhibition of 0

Query `O=c1cc(N2CCOCC2)nc2c3ccccc3ccn12` yields inhibition of 0

Query `Cc1ccc(-c2nn(C(C)(C)C)c3ncnc(N)c23)cc1` yields inhibition of 0

Query `N#C/C(=C\c1ccc(O)c(O)c1)C(N)=S` yields inhibition of 0

Query CS(=O)c1ccc(-c2nc(-c3ccc(F)cc3)c(-c3ccncc3)[nH]2)cc1 (stereo unspecified) yields inhibition of 0

----------
system: PRKACA (mouse); test: split-luciferase competition binding; conditions: compound 10.0 µM; accession and sequence are those of the human protein
MEASURED_ENDPOINT: inhibition (%)
Write down the numeric answer in % and omit the unit.

Query `CC(C)[C@H](CO)Nc1nc(Nc2cc(N)cc(Cl)c2)c2ncn(C(C)C)c2n1` yields inhibition of 13

Query `CC(C)[C@H](CO)Nc1nc(Nc2cccc(Cl)c2)c2ncn(C(C)C)c2n1` yields inhibition of 7

Query `CC(=O)c1c(O)c(C)c(O)c(Cc2c(O)c3c(c(C(=O)/C=C/c4ccccc4)c2O)OC(C)(C)C=C3)c1O` yields inhibition of 16

Query `C=CC(=O)c1ccc2ccccc2c1` yields inhibition of 0

Query `Nc1ccc(-c2cccc3c(=O)cc(N4CCOCC4)oc23)cc1` yields inhibition of 0

----------
target: RPS6KA3 KD1 (human) (UniProt P51812); experiment: split-luciferase competition binding; details: compound 10.0 µM
Sequence (P51812 whole entry, looked up): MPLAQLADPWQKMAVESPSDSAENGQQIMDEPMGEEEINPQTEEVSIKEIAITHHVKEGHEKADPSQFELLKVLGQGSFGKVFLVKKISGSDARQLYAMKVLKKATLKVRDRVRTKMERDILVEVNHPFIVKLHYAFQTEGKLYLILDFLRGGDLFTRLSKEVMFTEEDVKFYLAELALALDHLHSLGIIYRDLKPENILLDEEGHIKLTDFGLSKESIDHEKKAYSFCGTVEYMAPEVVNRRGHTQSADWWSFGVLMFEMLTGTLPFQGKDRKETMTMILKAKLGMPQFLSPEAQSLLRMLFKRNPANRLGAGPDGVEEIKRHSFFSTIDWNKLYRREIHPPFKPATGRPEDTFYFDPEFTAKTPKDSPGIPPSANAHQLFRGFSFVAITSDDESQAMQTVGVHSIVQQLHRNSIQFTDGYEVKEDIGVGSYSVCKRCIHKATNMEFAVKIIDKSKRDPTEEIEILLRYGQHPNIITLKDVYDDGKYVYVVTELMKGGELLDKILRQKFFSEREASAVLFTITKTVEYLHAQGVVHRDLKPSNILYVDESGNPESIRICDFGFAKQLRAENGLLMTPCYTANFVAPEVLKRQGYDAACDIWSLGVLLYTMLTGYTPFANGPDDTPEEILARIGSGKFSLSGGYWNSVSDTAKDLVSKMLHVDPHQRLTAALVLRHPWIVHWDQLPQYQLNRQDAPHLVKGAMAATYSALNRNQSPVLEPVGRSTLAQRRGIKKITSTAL
Short version: inhibition at least 6% is 1, less is -1.

Check the entry `Nc1ccc(-c2cccc3c(=O)cc(N4CCOCC4)oc23)cc1` : does inhibition equal or exceed 6%?
-1

Check the entry `COc1nccc(-c2c(-c3ccc(F)cc3)ncn2[C@H]2CC[C@H](O)CC2)n1` : does inhibition equal or exceed 6%?
-1

Check the entry `Oc1ccc(-c2nc(-c3ccc(F)cc3)c(-c3ccncc3)[nH]2)cc1` : does inhibition equal or exceed 6%?
-1

Check the entry `Cn1cc(C2=C(c3cn(CCCSC(=N)N)c4ccccc34)C(=O)NC2=O)c2ccccc21` : does inhibition equal or exceed 6%?
1

Check the entry `N#C/C(=C\c1ccc(O)c(O)c1)C(N)=S` : does inhibition equal or exceed 6%?
-1

Check the entry `CC(C)(C)n1nc(-c2cccc3ccccc23)c2c(N)ncnc21` : does inhibition equal or exceed 6%?
1

Check the entry O=C(NC(NC(=S)Nc1ccc(F)c([N+](=O)[O-])c1)C(Cl)(Cl)Cl)C(c1ccccc1)c1ccccc1 (configuration not stated) : does inhibition equal or exceed 6%?
-1

Check the entry `C/C(O)=C(\C#N)C(=O)Nc1cc(Br)ccc1Br` : does inhibition equal or exceed 6%?
-1

Check the entry `O=C(Nc1cc(C(F)(F)F)cc(C(F)(F)F)c1)c1cc(Cl)ccc1O` : does inhibition equal or exceed 6%?
-1

Check the entry `O=C1NC(=O)c2c1c1c3ccccc3n3c1c1c2c2ccccc2n1C1CCC3O1` : does inhibition equal or exceed 6%?
1

Check the entry `COc1cc2nccc(Oc3ccc(NC(=O)Nc4ccc(F)cc4F)c(F)c3)c2cc1OC` : does inhibition equal or exceed 6%?
1

Check the entry `O=S(=O)(NCCNC/C=C/c1ccc(Br)cc1)c1cccc2cnccc12` : does inhibition equal or exceed 6%?
-1

Check the entry `CC(C)[C@H](CO)Nc1nc(Nc2cc(N)cc(Cl)c2)c2ncn(C(C)C)c2n1` : does inhibition equal or exceed 6%?
1

Check the entry `CN1CC[C@H](c2c(O)cc(O)c3c(=O)cc(-c4ccccc4Cl)oc23)[C@H](O)C1` : does inhibition equal or exceed 6%?
1

Check the entry `CN1CCC(Nc2ncc3ncnc(Nc4ccc(F)c(Cl)c4)c3n2)CC1` : does inhibition equal or exceed 6%?
-1

Check the entry `COc1ccc(Cl)cc1NC(=O)Nc1cc(C)nc2ccccc12` : does inhibition equal or exceed 6%?
-1

Check the entry `Cc1cc(I)ccc1Nc1c(C(=O)NOCC2CC2)cc(F)c(F)c1F` : does inhibition equal or exceed 6%?
-1

Check the entry `O=C1Nc2ccc(I)cc2/C1=C/c1cc(Br)c(O)c(Br)c1` : does inhibition equal or exceed 6%?
1

Check the entry `Nc1ncnc2[nH]nc(Nc3ccc(F)cc3)c12` : does inhibition equal or exceed 6%?
-1

Check the entry `Cc1ccccc1C(=O)c1ccc(Nc2ccc(Br)cc2N)cc1Cl` : does inhibition equal or exceed 6%?
-1

Check the entry `N#C/C(=C\c1ccc(O)c(O)c1)C(=O)NCc1ccccc1` : does inhibition equal or exceed 6%?
-1
